# Tested Target: purified PSD (Homo sapiens, UniProt Q9UG56)
# Construct: Purified recombinant protein (full length) of human phosphatidylserine decarboxylase (PSD); His tag (N); purchased Acris-OriGene; host or cells: E. coli
# Assay Info: MST, labelled PSD with synthetic peptides
# Condition Summary: labelled PSD 0.25 µM, peptide 1–10 µM, 30 min, 37 °C, n = 3, read-out: Kd, peptide binding to purified PSD
No end group written: not given here.
Listed here are sequences together with their documented Kd.
The response must be a number in µM with no trailing unit.

[in] Consider the sequence shown here: ALSTSSPIPSVPQSQAQPQTGSGAS [2F3] What is its recorded Kd?
[out] 3

[in] Consider the sequence shown here: ALLTSGTSDPRARVTYGTPSLWRL [1C11] What is its recorded Kd?
[out] 3
